Test system: JAK1(JH1domain-catalytic);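 further: KINOMEscan kinase panel screen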
Conditions: concentration: 1 μM, replicates: in singlicate; n = 1
Values of %Inh strictly less than 10% map to TRUE, and values of at least 10% map to FALSE.

Record COc1cc2ncnc(Nc3ccc4nc(-c5ccccc5)[nH]c4c3)c2cc1OC.Cl : is its %Inh strictly below 10%?
TRUE

Record O=c1cc(N2CCOCC2)nc2n(Cc3cccc(Cl)c3Cl)ccn12 : is its %Inh strictly below 10%?
FALSE

Record Cc1cccc(-c2nc(-c3ccc(S(C)(=O)=O)cc3)sc2-c2ccnc(NCCc3ccccc3)c2)c1 : is its %Inh strictly below 10%?
TRUE

Next:
Record Cc1nnc(-c2ccc3occ(-c4ccc(S(C)=O)cc4)c3c2)[nH]1 (centres unmarked) : is its %Inh strictly below 10%?
TRUE
